tested on: K4 kissing-loop RNA reporter; assay: apparent KD of K4 kissing-loop reporter; higher = weaker reporter binding; conditions: Eterna round: R107; input ligand: none;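 also: bound reporter read as fluorescence of individual clusters on recovered sequencing chips by microscopy, with normalized cluster intensities fitted with a binding model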
Outcome label depends on apparent KD of K4 kissing-loop reporter relative to 300 nM: at/above gives Met, below gives Not met.

These solved cases illustrate the format of a correct answer.
{"sequence": "AAUAUAUAGUGAAGGAGCGCGAUAAGCAGUGAUGUUGCUUAGUUAUUAGUGUUUAUUUUUACGCAGGUAGGUCGCACUAUAUAUA [JR_ExcArginiB_Sub017]", "label": "Not met"}
{"sequence": "CCAGAAUGAUGAGGAUGAUAAAUUACUGAAGGAGCGCAUAUAGUUGCAGGUAGGUCGCGGUGAAUAAGUAUAGUGAUGUUAUACC [SSArgA.Ab]", "label": "Met"}
{"sequence": "UGUACCGAGUGAGGAUAUGUCGUCGAAAGACGAAAUGGAGUGAUGUUCCUUAAACUGCGAAAGCAGACAGAAGGCACUUGGUACU [FmnBS 29 G11+C75]", "label": "Not met"}

Please indicate if the recorded apparent KD of K4 kissing-loop reporter for GUGCAAAGCACCGGCACGAGCAGCUUAAAGGAGGAUAUGACGAAAGUCAGAAGGUUUAGUGAUGUUAGGCCUUGCUUGAGUCGAA [#01 K4 FMN A Exclusion] meets or exceeds 300 nM. Not met

Hi, just wondering whether GGCACUACAGCGGCCGCCACUGUUUAGUCCAUCGCUUGCGAGUGAUGUUCGUAGGUACUGCAGCUCAGGACCGGGCUGUCCUUAC [theeternabot_sameState_KL_Trp_B_34] shows apparent KD of K4 kissing-loop reporter of 300 nM or higher. Met

# bool: apparent KD of K4 kissing-loop reporter of GGUCGAGUGAUGUUCGAUGUAGUGCAUUCAGAGGAUAUAGGAUGGGCUAGAAGGCUGAAAGGUGCUUCGAGUGAUGUUCGAGGAU [Exclusion FMN A GF 3] >= 300 nM Not met
